Test system: Toxoplasma gondii RH (in HFF)
Experiment: parasite growth relative to the screen mean (all compounds = 100%); higher = less inhibition of parasite growth
Settings: 5 µM; 72 h; oxygen 21 %
Structures can show the parent of a compound that is named as a salt.
Reported Metric: parasite growth

compound="NC(=O)N1c2ccccc2CC(O)c2ccccc21 (stereo unspecified) [Licarbazepine]" study_system="Toxoplasma gondii RH (in HFF)" reported_metric="parasite growth" result=122%
compound="COc1ccc2c(c1OC)C(=O)O[C@@H]2[C@H]1c2c(cc3c(c2OC)OCO3)CCN1C [Noscapine hydrochloride]" study_system="Toxoplasma gondii RH (in HFF)" reported_metric="parasite growth" result=129%
compound=CN(Cc1ccccc1)C(=O)[C@H](Cc1ccc2ccccc2c1)NC(=O)[C@@H]1CCCN1C(=O)Nc1ccccc1[N+](=O)[O-] study_system="Toxoplasma gondii RH (in HFF)" reported_metric="parasite growth" result=110%
compound="CN1CCN2c3ccccc3Cc3ccccc3C2C1 (stereo unspecified) [Mianserin hydrochloride]" study_system="Toxoplasma gondii RH (in HFF)" reported_metric="parasite growth" result=154%
compound="CCC(=O)NC1Cc2ccccc2C(c2ccccc2)C1 (stereo unspecified)" study_system="Toxoplasma gondii RH (in HFF)" reported_metric="parasite growth" result=73.8%
compound=c1ccc(-c2n[nH]c3c2oc2ccccc23)cc1 study_system="Toxoplasma gondii RH (in HFF)" reported_metric="parasite growth" result=103%
compound=CCCCCCNC(=O)Nc1ccc(S(=O)(=O)Nc2ccc(CCNC[C@H](O)COc3ccc(O)cc3)cc2)cc1 study_system="Toxoplasma gondii RH (in HFF)" reported_metric="parasite growth" result=170%
compound="CC(C)NC[C@@H](O)COc1cccc2ccccc12 [(R)-(+)-Propranolol hydrochloride]" study_system="Toxoplasma gondii RH (in HFF)" reported_metric="parasite growth" result=87.1%
compound="CCOC(=O)C1=C(N)Oc2ccc(Br)cc2C1C(C#N)C(=O)OCC (stereo unspecified)" study_system="Toxoplasma gondii RH (in HFF)" reported_metric="parasite growth" result=135%
compound=COc1cc(C[C@H]2C(=O)OC[C@@H]2Cc2ccc(OC)c(OC)c2)ccc1O study_system="Toxoplasma gondii RH (in HFF)" reported_metric="parasite growth" result=125%
compound=O=c1cc(-c2cccc3c2Sc2ccccc2S3)oc(N2CCOCC2)c1 study_system="Toxoplasma gondii RH (in HFF)" reported_metric="parasite growth" result=112%
compound="C[C@](N)(Cc1ccc(O)c(O)c1)C(=O)O [L-(-)- α-Methyldopa]" study_system="Toxoplasma gondii RH (in HFF)" reported_metric="parasite growth" result=146%
compound=CCc1c2c(nc3ccc(OC(=O)N4CCC(N5CCCCC5)CC4)cc13)-c1cc3c(c(=O)n1C2)COC(=O)[C@]3(O)CC study_system="Toxoplasma gondii RH (in HFF)" reported_metric="parasite growth" result=59.8%
compound="c1cc2c(cc1C1CCCCC1)c1c3n2CCNC3CCC1 (stereo unspecified) [Tetrindole mesylate]" study_system="Toxoplasma gondii RH (in HFF)" reported_metric="parasite growth" result=13.2%
compound=C[C@@H]1C[C@H]2[C@@H]3CCC4=CC(=O)C=C[C@]4(C)[C@@]3(F)[C@@H](O)C[C@]2(C)[C@@]1(O)C(=O)CO study_system="Toxoplasma gondii RH (in HFF)" reported_metric="parasite growth" result=141%
compound="CCCc1c(OCC(O)COc2ccc3c(=O)cc(C(=O)O)oc3c2CCC)ccc(C(C)=O)c1O (stereo unspecified)" study_system="Toxoplasma gondii RH (in HFF)" reported_metric="parasite growth" result=96.9%
compound=NC(=O)N1C(=O)/C(=C(\O)c2cccs2)c2cc(Cl)ccc21 study_system="Toxoplasma gondii RH (in HFF)" reported_metric="parasite growth" result=134%
compound="CC(C)NCC(O)COc1ccc(CC(N)=O)cc1 (racemic) [(RS)-Atenolol]" study_system="Toxoplasma gondii RH (in HFF)" reported_metric="parasite growth" result=103%
compound="CC(CCCCC(=O)Nc1ccc(C(F)(F)F)cc1)NCCc1cnc[nH]1 (stereo unspecified) [HTMT dimaleate]" study_system="Toxoplasma gondii RH (in HFF)" reported_metric="parasite growth" result=95.1%
compound="Nc1nc(N)nc(-c2cc(Cl)ccc2Cl)n1 [Irsogladine maleate]" study_system="Toxoplasma gondii RH (in HFF)" reported_metric="parasite growth" result=127%
compound="CCN(CC)CCOC(=O)c1cc(Cl)c(N)cc1OC [SDZ 205-557 hydrochloride]" study_system="Toxoplasma gondii RH (in HFF)" reported_metric="parasite growth" result=105%
compound=CNC(=O)[C@H]1O[C@@H](n2cnc3c(NCc4cccc(I)c4)ncnc32)[C@H](O)[C@@H]1O study_system="Toxoplasma gondii RH (in HFF)" reported_metric="parasite growth" result=117%
compound="COC(=O)c1c(-c2cc(OC)c(OC)c(OC)c2)c2ccnc(OCc3ncccn3)c2c(=O)n1Cc1ccnc(C)c1 [T 0156 hydrochloride]" study_system="Toxoplasma gondii RH (in HFF)" reported_metric="parasite growth" result=89.9%
compound="CC(C1=C(CCN(C)C)Cc2ccccc21)c1ccccn1 (stereo in doubt) [(S)-(+)-Dimethindene maleate]" study_system="Toxoplasma gondii RH (in HFF)" reported_metric="parasite growth" result=83.1%
compound=C=CCn1c(=O)n([C@@H]2O[C@H](CO)[C@@H](O)[C@H]2O)c2nc(N)[nH]c(=O)c21 study_system="Toxoplasma gondii RH (in HFF)" reported_metric="parasite growth" result=116%
compound="CCC(=O)NC1CCc2cccc(OC)c2C1 (stereo unspecified)" study_system="Toxoplasma gondii RH (in HFF)" reported_metric="parasite growth" result=84.3%
